# TARGET DESC: BSA (UniProt P02769)
# Sequence (P02769 25-607 limits assumed): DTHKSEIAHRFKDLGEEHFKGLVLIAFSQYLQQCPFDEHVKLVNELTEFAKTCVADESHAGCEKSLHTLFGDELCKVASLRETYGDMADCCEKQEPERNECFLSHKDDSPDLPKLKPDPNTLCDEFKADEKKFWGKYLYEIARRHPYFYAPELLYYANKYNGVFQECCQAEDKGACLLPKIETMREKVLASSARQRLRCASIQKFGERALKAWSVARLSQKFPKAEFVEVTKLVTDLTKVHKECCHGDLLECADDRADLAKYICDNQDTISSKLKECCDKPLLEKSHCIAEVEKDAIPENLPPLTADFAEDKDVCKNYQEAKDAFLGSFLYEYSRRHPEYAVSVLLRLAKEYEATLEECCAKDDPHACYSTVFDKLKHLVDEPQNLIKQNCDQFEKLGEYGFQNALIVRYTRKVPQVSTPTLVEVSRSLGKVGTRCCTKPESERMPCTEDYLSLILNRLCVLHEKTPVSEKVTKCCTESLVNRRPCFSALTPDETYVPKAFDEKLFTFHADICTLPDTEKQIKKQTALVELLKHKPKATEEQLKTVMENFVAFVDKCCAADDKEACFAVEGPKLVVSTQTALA
# EXPERIMENT NOTES: scFv ELISA
READOUT NAME: OD450 (OD450)
# unit: OD450 | format: bare number

Some binders with known OD450 results, for comparison:
PcOxP_DB03_C06 (scFv, V domains shown, scFv in periplasmic extract) VH: EVQLLESGGGLVQPGGSLRLSCAASGATFSDFYMEWVRQAPGKGLEWVAASRNGANDYTTEYADSVKGRFTISRDNSKNTLYLQMNSLRAEDTAVYYCARDYYGNSYWYFDVWGQGTLVTVSS VL: DIQMTQSPSSLSASVGDRVTITCTASESLYSSKHKVHYLAWYQQKPGKAPKLLIYGASNRQSGVPSRFSGSGSGTDFTLTISSLQPEDFATYYCAQFYVYPLTFGGGTKVEIK	0.07
PcOxP_DB03_C11 (scFv, V domains shown, scFv in periplasmic extract) VH: EVQLLESGGGLVQPGGSLRLSCAASGFDFSDFYMEWVRQAPGKGLEWVAASRNKANDYTTDYADSVKGRFTISRDNSKNTLYLQMNSLRAEDTAVYYCARDYFGSSYWYFDVWGQGTLVTVSS VL: DIQMTQSPSSLSASVGDRVTITCTASESLYSSKHKVHYLAWYQQKPGKAPKLLIYGASNRYQGVPSRFSGSGSGTDFTLTISSLQPEDFATYYCAQFYFYPLTFGGGTKVEIK	0.07

Consider the record given below.
Problem: OD450 lookup needed for PcOxP_DB01_F10 (scFv, V domains shown, scFv in periplasmic extract) VH: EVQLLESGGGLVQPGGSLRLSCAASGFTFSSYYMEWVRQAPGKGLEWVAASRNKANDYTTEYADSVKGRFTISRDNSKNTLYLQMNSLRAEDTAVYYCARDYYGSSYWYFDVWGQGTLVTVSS VL: DIQMTQSPSSLSASVGDRVTITCTASESLYSSKHKVHYLAWYQQKPGKAPKLLIYGASNGYIGVPSRFSGSGSGTDFTLTISSLQPEDFATYYCAQFYTYPLTFGGGTKVEIK , thanks.
Solution: 0.09

Values were extracted from patent US20250320312A1.
